- Target desc: acetyl CoA carboxylase 1 (ACC1) (Homo sapiens)
- Procedure summary: ACC1 inhibitory assay (ADP-Glo luminescence)
- Format: biochemical
Endpoint label: pIC50
Please treat pIC50 as minus the base-10 logarithm of the molar concentration.

**Q:** What measured pIC50 goes with COc1ccccc1[C@H](Cn1c(=O)n(C(C)(C)C(=O)O)c(=O)c2c(C)c(-c3ncco3)sc21)OC1CCOCC1 [ND 630, Firsocostat, reference compound] ?
**A:** 8.70

* * *

- Target desc: acetyl CoA carboxylase 1 (ACC1) (Homo sapiens)
- Procedure summary: ACC1 inhibitory assay (ADP-Glo luminescence)
- Type: biochemical
- Conditions: mean ± SEM of triplicated experiments; read-out: IC50 ACC1
Endpoint label: IC50 (µM)
Write it as a number; the unit µM goes unstated.

>>> value("C=C[C@H]1[C@H](O[C@@H]2O[C@H](CO)[C@@H](O)[C@H](O)[C@H]2O)OC=C(C(=O)O[C@H]2C[C@@H]3C(C(=O)OC)=CO[C@@H](O[C@@H]4O[C@H](CO)[C@@H](O)[C@H](OC(=O)/C=C/c5ccc(O)c(O)c5)[C@H]4O)[C@@H]3[C@@H]2C)[C@H]1CC(OC)OC [Compound 2, Amabilioside B]")
9.6

**Q:** I'm curious: which IC50 was measured for CC(=O)O[C@H]1CC[C@]2(C)[C@H]3CC=C4[C@@H]5[C@@H](C)[C@H](C)CC[C@]5(C(=O)O)CC[C@@]4(C)[C@]3(C)CC[C@H]2C1(C)C tested on acetyl CoA carboxylase 1 (ACC1) (Homo sapiens)?
**A:** 10.3

* * *

- Target desc: ATP-citrate lyase (ACL) (Homo sapiens, UniProt P53396)
- Sequence (P53396 whole entry): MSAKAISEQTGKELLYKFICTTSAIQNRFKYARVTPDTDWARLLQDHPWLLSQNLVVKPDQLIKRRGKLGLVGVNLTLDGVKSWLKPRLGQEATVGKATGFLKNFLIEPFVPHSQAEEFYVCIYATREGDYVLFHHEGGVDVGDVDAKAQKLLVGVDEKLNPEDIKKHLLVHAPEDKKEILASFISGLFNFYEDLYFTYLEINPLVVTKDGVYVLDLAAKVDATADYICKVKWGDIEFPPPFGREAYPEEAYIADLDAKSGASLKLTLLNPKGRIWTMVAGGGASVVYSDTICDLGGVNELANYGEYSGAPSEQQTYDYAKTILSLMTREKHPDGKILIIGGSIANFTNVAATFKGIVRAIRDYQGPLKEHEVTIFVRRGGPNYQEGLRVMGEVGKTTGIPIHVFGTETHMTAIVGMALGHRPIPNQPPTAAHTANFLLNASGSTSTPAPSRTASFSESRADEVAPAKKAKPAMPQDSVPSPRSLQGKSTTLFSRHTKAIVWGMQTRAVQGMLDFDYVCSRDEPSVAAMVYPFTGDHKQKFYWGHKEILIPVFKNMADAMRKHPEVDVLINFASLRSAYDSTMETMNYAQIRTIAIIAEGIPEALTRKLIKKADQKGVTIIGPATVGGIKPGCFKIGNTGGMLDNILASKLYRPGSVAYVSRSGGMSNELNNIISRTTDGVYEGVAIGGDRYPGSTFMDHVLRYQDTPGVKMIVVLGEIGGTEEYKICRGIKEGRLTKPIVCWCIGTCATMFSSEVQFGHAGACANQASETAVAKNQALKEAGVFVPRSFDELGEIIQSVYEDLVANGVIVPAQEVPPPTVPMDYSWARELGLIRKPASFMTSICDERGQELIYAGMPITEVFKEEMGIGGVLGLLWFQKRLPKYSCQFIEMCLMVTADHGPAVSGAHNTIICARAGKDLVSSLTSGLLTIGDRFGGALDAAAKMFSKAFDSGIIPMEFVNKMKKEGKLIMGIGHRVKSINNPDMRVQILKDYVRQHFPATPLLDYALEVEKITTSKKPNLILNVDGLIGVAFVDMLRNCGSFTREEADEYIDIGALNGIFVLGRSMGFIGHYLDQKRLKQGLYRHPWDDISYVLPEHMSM
- Procedure summary: ACL inhibitory assay (ADP-Glo luminescence)
- Format: biochemical
- Conditions: mean ± SEM of triplicated experiments
Below is a list of entries, each paired with its recorded pIC50 value.
Please treat pIC50 as minus the base-10 logarithm of the molar concentration.

Example entries and their recorded answers appear below.
>>> value("COc1ccc(-c2ccccc2)cc1NS(=O)(=O)c1cc(Cl)cc(Cl)c1O [BMS 303141, reference compound]")
6.52
>>> value("CC1(C)CC[C@]2(C(=O)O)CC[C@]3(C)C(=CC[C@@H]4[C@@]5(C)CC[C@H](O)[C@@](C)(COC(=O)/C=C/c6ccc(O)cc6)[C@@H]5CC[C@]43C)[C@@H]2C1 [Compound 31, (23E)-coumaroylhederagenin]")
5.33

**Q:** What measured pIC50 goes with C=C[C@H]1[C@H](O[C@@H]2O[C@H](CO)[C@@H](O)[C@H](O)[C@H]2O)OC=C(C(=O)O[C@H]2C[C@@H]3C(C(=O)OC)=CO[C@@H](O)[C@@H]3[C@@H]2C)[C@H]1CC(OC)OC [Compound 8, lonicejaposide C] ?
**A:** 5.44

**Q:** What measured pIC50 goes with CC(=O)O[C@H]1CC[C@]2(C)[C@H]3CC=C4[C@@H]5[C@@H](C)[C@H](C)CC[C@]5(C(=O)O)CC[C@@]4(C)[C@]3(C)CC[C@H]2C1(C)C [Compound 17, 3β-acetyl-ursolic acid] ?
**A:** 5.70
